System: AsPC-1 cells (K-Ras G12D)
pIC50: −log10 of the molar value.
Assign 1 whenever pIC50 does not fall below 7; assign 0 whenever it does.

A selection of reference data follows.
C#Cc1c(F)ccc2cc(N)cc(-c3nc4c5c(nc(OC[C@@]67CCCN6C[C@H](F)C7)nc5c3F)N3[C@@H](C)CCOC[C@H]3N4C)c12 [Compound 36] : 1
C#Cc1c(F)ccc2cc(N)cc(-c3nc4c5c(nc(OC[C@@]67CCCN6C[C@H](F)C7)nc5c3F)N3[C@@H](C)CCOC[C@H]3N4C3CC3)c12 [Compound 90] : 0
[2H]C([2H])([2H])N1c2nc(-c3cc(N)cc4ccc(F)c(C#C)c34)c(F)c3nc(OC[C@@]45CCCN4C[C@H](F)C5)nc(c23)N2CCCOC[C@H]21 [Compound 48] : 1
CCc1c(F)ccc2cc(N)cc(-c3nc4c5c(nc(OC[C@@]67CCCN6C[C@H](F)C7)nc5c3F)N3CCCOC[C@H]3CO4)c12 [Compound 6A] : 0
C#Cc1c(F)ccc2cc(N)cc(-c3nc4c5c(nc(OC[C@@]67CCCN6C[C@H](F)C7)nc5c3F)N3CCCOC[C@H]3[C@H](C)O4)c12 [Compound 18A] : 0

Hi team, for C#Cc1c(F)ccc2cc(N)cc(-c3nc4c5c(nc(OC[C@@]67CCCN6C[C@H](F)C7)nc5c3F)N3CCCOCC3N4)c12 (some centres unmarked) [Compound 113] , is the recorded pIC50 at or above 7?
0

====

assayedTarget: GppNp-KRAS G12D (Homo sapiens, UniProt P01116, G12D)
Sequence (P01116 1-169 isoform P01116-2 G12D): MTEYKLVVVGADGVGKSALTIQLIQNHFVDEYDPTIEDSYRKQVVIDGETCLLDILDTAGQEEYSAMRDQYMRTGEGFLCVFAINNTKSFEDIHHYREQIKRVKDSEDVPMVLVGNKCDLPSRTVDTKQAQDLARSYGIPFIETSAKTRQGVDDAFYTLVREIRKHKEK
protocol: biochemical
# label = label 1 if IC50 < 100 nM else label 0

A selection of reference data follows.
C#Cc1c(F)ccc2cc(N)cc(-c3nc4c5c(nc(OC[C@@]67CCCN6C[C@H](F)C7)nc5c3F)N3[C@@H](C)CCOC[C@H]3N4C)c12 [Compound 36] : label 1
C#Cc1c(F)ccc2cc(N)cc(-c3nc4c5c(nc(OC[C@@]67CCCN6C[C@H](F)C7)nc5c3F)N3C(C(F)F)CCOCC3N4C)c12 (some centres unmarked) [Compound 52] : label 0
C[C@H]1CCOC[C@H]2COc3c(Cl)c(-c4ccc(F)c5sc(N)c(C#N)c45)c(F)c4nc(OC[C@@]56CCCN5C[C@H](F)C6)nc(c34)N21 (atropisomer, axis not shown) [Compound 158A] : label 1
C#Cc1c(F)ccc2cc(N)cc(-c3nc4c5c(nc(OC[C@@]67CCCN6C[C@H](F)C7)nc5c3F)N3CCCC[C@H](F)[C@H]3N4C)c12 [Compound 40A] : label 1

Now look at this one.
# TODO verify IC50 < 100 nM strictly for this compound: C#Cc1c(F)ccc2cc(N)cc(-c3nc4c5c(nc(OC[C@@]67CCCN6C[C@H](F)C7)nc5c3F)N3[C@H](C)CCOC[C@H]3N4C)c12 [Compound 41]
label 0

====

Test system: SW620 cells (K-Ras G12V)
protocol: Phospho-ERK1/2(THR202/TYR204) HTRF assay, SW620
Format: cell-based
statedConditions: Homo sapiens, SW-620, 2 hours incubation, read-out: pERK, IC50, SW620
propertyLabel: pIC50
Give only the number. pIC50 is defined as minus log10 of concentration in molar units.

Notebook: pull reported pIC50 for SW620 cells (K-Ras G12V), entry C#Cc1c(F)ccc2cc(N)cc(-c3nc4c5c(nc(OC[C@@]67CCCN6C[C@H](F)C7)nc5c3F)N3CCCOCC3N4C3CC3)c12 (stereo partly shown)
8.23

Notebook: pull reported pIC50 for SW620 cells (K-Ras G12V), entry C#Cc1c(F)ccc2cc(N)cc(-c3nc4c5c(nc(OC[C@@]67CCCN6C[C@H](F)C7)nc5c3F)N3[C@@H](C)CCOC[C@H]3N4C)c12
9.00

Notebook: pull reported pIC50 for SW620 cells (K-Ras G12V), entry [2H]C1([2H])OCCCN2c3nc(OC[C@@]45CCCN4C[C@H](F)C5)nc4c(F)c(-c5cc(N)cc6ccc(F)c(C#C)c56)nc(c34)N(C)C21 (stereo partly shown)
8.68

Cited source for all entries: patent US20260200947A1
